# study.target: Tyrosine-protein kinase BTK (Homo sapiens, UniProt Q06187)
# Sequence (Q06187 whole entry): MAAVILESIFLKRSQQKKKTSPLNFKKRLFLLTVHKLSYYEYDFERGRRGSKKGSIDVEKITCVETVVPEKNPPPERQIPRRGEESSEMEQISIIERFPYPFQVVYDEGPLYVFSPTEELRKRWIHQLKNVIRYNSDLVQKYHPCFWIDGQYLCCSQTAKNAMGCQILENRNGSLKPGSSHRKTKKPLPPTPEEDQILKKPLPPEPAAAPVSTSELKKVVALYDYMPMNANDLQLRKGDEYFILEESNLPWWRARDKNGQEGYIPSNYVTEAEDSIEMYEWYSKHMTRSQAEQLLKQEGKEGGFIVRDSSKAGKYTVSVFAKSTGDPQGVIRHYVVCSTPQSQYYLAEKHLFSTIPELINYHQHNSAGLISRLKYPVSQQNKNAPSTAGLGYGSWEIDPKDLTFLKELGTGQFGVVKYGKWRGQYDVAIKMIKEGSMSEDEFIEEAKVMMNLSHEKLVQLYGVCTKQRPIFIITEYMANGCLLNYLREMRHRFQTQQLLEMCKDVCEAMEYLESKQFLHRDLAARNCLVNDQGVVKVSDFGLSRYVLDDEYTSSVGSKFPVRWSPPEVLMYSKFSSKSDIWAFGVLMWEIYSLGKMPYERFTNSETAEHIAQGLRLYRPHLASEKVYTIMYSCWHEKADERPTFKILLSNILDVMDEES
# experimental.protocol: Inhibition of BTK in human Ramos cells assessed as inhibition of anti human IgM-induced calcium influx preincubated for 20 mins in dark followed by anti human IgM induction for 8 mins by FLIPR assay
# Format: cell-based
# class assignment by measured IC50: c1: < 10 nM; c2: ≥ 10 nM and < 90 nM; c3: ≥ 90 nM

Exam item: Category lookup for the compound CN(C)C(=O)c1ccc(-c2nc3c(-c4cccc(-n5ccc6cc(C7CC7)cc(F)c6c5=O)c4CO)ccnc3[nH]2)cc1
Marked response: c3

Exam item: What about this compound? CN(C)C(=O)N1CC=C(c2cc3c(-c4cccc(-n5ccc6cc(C7CC7)cc(F)c6c5=O)c4CO)ccnc3[nH]2)CC1
Marked response: c2

Exam item: What about this compound? CC(=O)c1cc(-c2cc3c(-c4cccc(-n5ccc6cc(C7CC7)cc(F)c6c5=O)c4CO)ccnc3[nH]2)cs1
Marked response: c2

Exam item: What about this compound? Nc1cccc(-c2cc3c(-c4cccc(-n5ccc6cc(C7CC7)cc(F)c6c5=O)c4CO)ccnc3[nH]2)c1
Marked response: c3

Exam item: What about this compound? CN(C)C(=O)c1ccc(-c2cc3c(-c4cccc(-n5ccc6cc(C7CC7)cc(F)c6c5=O)c4CO)ccnc3[nH]2)cc1
Marked response: c3

Exam item: What about this compound? O=c1c2c(F)cc(C3CC3)cc2ccn1-c1cccc(-c2ccnc3[nH]c(C4=CCNCC4)cc23)c1CO
Marked response: c1

Exam item: What about this compound? CC(=O)c1ccc(-c2cc3c(-c4cccc(-n5ccc6cc(C7CC7)cc(F)c6c5=O)c4CO)ccnc3[nH]2)cc1
Marked response: c2

Exam item: What about this compound? O=c1c2c(F)cc(C3CC3)cc2ccn1-c1cccc(-c2ccnc3[nH]c(C4=CCN(C5COC5)CC4)cc23)c1CO
Marked response: c1

Exam item: What about this compound? O=C(N1CC=C(c2cc3c(-c4cccc(-n5ccc6cc(C7CC7)cc(F)c6c5=O)c4CO)ccnc3[nH]2)CC1)N1CCOCC1
Marked response: c2

Exam item: What about this compound? O=c1c2c(F)cc(C3CC3)cc2ccn1-c1cccc(-c2ccnc3[nH]c(-c4ccc(O)cc4)cc23)c1CO
Marked response: c3

Exam item: What about this compound? CS(=O)(=O)N1CC=C(c2cc3c(-c4cccc(-n5ccc6cc(C7CC7)cc(F)c6c5=O)c4CO)ccnc3[nH]2)CC1
Marked response: c3

Exam item: What about this compound? CC(=O)N1CC=C(c2cc3c(-c4cccc(-n5ccc6cc(C7CC7)cc(F)c6c5=O)c4CO)ccnc3[nH]2)CC1
Marked response: c2

Exam item: What about this compound? O=C(C1CC1)N1CC=C(c2cc3c(-c4cccc(-n5ccc6cc(C7CC7)cc(F)c6c5=O)c4CO)ccnc3[nH]2)CC1
Marked response: c2

Exam item: What about this compound? CN(C)S(=O)(=O)N1CC=C(c2cc3c(-c4cccc(-n5ccc6cc(C7CC7)cc(F)c6c5=O)c4CO)ccnc3[nH]2)CC1
Marked response: c2

Exam item: What about this compound? Cn1ccc(-c2cc3c(-c4cccc(-n5ccc6cc(C7CC7)cc(F)c6c5=O)c4CO)ccnc3[nH]2)n1
Marked response: c1

---

# study.target: Tyrosine-protein kinase BTK (Homo sapiens)
# experimental.protocol: Inhibition of BTK in human Ramos cells assessed as inhibition of anti human IgM-induced calcium influx preincubated for 20 mins in dark followed by anti human IgM induction for 8 mins by FLIPR assay
# Format: cell-based
pIC50: −log10 of the molar value.
Label fulfilled when pIC50 >= 7; otherwise not fulfilled.

Exam item: Does pIC50 meet or surpass 7 for Cc1cc2c(-c3cccc(-n4ccc5cc(C6CC6)cc(F)c5c4=O)c3CO)ccnc2[nH]1 ?
Marked response: not fulfilled

Exam item: What about this molecule? CN(C)C(=O)N1CC=C(c2cc3c(-c4cccc(-n5ccc6cc(C7CC7)cc(F)c6c5=O)c4CO)cccc3[nH]2)CC1
Marked response: not fulfilled

Exam item: What about this molecule? COc1ccc(-c2cc3c(-c4cccc(-n5ccc6cc(C7CC7)cc(F)c6c5=O)c4CO)ccnc3[nH]2)cn1
Marked response: not fulfilled

Exam item: What about this molecule? COc1ccc(-c2cc3c(-c4cccc(-n5ccc6cc(C7CC7)cc(F)c6c5=O)c4CO)ccnc3[nH]2)cc1
Marked response: fulfilled

Exam item: What about this molecule? O=C(c1ccc(-c2cc3c(-c4cccc(-n5ccc6cc(C7CC7)cc(F)c6c5=O)c4CO)ccnc3[nH]2)cc1)N1CCCCC1
Marked response: fulfilled
